Molecular target: 14-3-3γ (Homo sapiens, UniProt P61981)
Construct: made in house; host or cells: E. coli NiCo21 (DE3)
Sequence (P61981 1-247): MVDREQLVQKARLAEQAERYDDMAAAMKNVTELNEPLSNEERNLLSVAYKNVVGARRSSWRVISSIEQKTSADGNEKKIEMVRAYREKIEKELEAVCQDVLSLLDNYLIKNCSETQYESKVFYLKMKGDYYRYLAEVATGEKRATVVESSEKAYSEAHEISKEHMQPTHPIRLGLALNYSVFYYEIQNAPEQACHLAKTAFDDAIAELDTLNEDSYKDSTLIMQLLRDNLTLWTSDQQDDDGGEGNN
Experiment: Isothermal titration calorimetry (ITC) of 14-3-3 binding to peptide
Settings: Table S5; ITC Kd / Kd of peptide 1; first unlabelled line (replicate 1)
Where a SMILES comes first, the peptide text is derived from it. [ ]: non-standard residue; d: D form. ξ: configuration not given here. Phe(4-NO2) = N[C@@H](Cc1ccc([N+](=O)[O-])cc1)C(=O)O; ξAla(4-thiazolyl) = NC(Cc1cscn1)C(=O)O; pS = N[C@@H](COP(=O)(O)O)C(=O)O; β3hS = N[C@@H](CO)CC(=O)O; Nva = CCC[C@H](N)C(=O)O; βAla = NCCC(=O)O
Property Label: Fold change to 1

molecule="CCC[C@H](NC(=O)[C@H](N)CCCCN)C(=O)N[C@@H](Cc1ccc([N+](=O)[O-])cc1)C(=O)NC(Cc1cscn1)C(=O)N[C@@H](COP(=O)(O)O)C(=O)N[C@@H](Cc1ccc(O)cc1)C(=O)N[C@@H](CO)CC(=O)NCCC(=O)N[C@@H](Cc1ccc([N+](=O)[O-])cc1)C(=O)N[C@@H](CCCCN)C(N)=O (stereo partly drawn) [4a] (H-[dK][Nva][Phe(4-NO2)][ξAla(4-thiazolyl)][pS]Y[β3hS][βAla][Phe(4-NO2)]K-NH2; N-terminus and C-terminus assumed)" reported_measurement=2.8
molecule="CCC[C@H](NC(=O)[C@H](N)CCCCN)C(=O)N[C@@H](Cc1ccc([N+](=O)[O-])cc1)C(=O)N[C@@H](C)C(=O)N[C@@H](COP(=O)(O)O)C(=O)N[C@@H](Cc1ccc([N+](=O)[O-])cc1)C(=O)N[C@@H](CO)CC(=O)NCCC(=O)N[C@@H](Cc1ccc([N+](=O)[O-])cc1)C(=O)N[C@@H](CCCCN)C(N)=O [3a] (H-[dK][Nva][Phe(4-NO2)]A[pS][Phe(4-NO2)][β3hS][βAla][Phe(4-NO2)]K-NH2; N-terminus and C-terminus assumed)" reported_measurement=2.0
molecule="CCC[C@H](NC(=O)[C@H](N)CCCCN)C(=O)N[C@@H](Cc1ccc([N+](=O)[O-])cc1)C(=O)NC(Cc1cscn1)C(=O)N[C@@H](COP(=O)(O)O)C(=O)N[C@@H](C)C(=O)N[C@@H](CO)CC(=O)NCCC(=O)N[C@@H](Cc1ccc([N+](=O)[O-])cc1)C(=O)N[C@@H](CCCCN)C(N)=O (stereo partly drawn) [4c] (H-[dK][Nva][Phe(4-NO2)][ξAla(4-thiazolyl)][pS]A[β3hS][βAla][Phe(4-NO2)]K-NH2; N-terminus and C-terminus assumed)" reported_measurement=15.0
molecule="CCC[C@H](NC(=O)[C@H](N)CCCCN)C(=O)N[C@@H](Cc1ccc([N+](=O)[O-])cc1)C(=O)NC(Cc1cscn1)C(=O)N[C@@H](COP(=O)(O)O)C(=O)N[C@@H](Cc1ccccc1)C(=O)N[C@@H](CO)CC(=O)NCCC(=O)N[C@@H](Cc1ccc([N+](=O)[O-])cc1)C(=O)N[C@@H](CCCCN)C(N)=O (stereo partly drawn) [4b] (H-[dK][Nva][Phe(4-NO2)][ξAla(4-thiazolyl)][pS]F[β3hS][βAla][Phe(4-NO2)]K-NH2; N-terminus and C-terminus assumed)" reported_measurement=0.6

Attribution: paper PMC9667936
